Target: NAD-dependent protein deacetylase sirtuin-1 (Homo sapiens, UniProt Q96EB6)
Sequence (Q96EB6 whole entry): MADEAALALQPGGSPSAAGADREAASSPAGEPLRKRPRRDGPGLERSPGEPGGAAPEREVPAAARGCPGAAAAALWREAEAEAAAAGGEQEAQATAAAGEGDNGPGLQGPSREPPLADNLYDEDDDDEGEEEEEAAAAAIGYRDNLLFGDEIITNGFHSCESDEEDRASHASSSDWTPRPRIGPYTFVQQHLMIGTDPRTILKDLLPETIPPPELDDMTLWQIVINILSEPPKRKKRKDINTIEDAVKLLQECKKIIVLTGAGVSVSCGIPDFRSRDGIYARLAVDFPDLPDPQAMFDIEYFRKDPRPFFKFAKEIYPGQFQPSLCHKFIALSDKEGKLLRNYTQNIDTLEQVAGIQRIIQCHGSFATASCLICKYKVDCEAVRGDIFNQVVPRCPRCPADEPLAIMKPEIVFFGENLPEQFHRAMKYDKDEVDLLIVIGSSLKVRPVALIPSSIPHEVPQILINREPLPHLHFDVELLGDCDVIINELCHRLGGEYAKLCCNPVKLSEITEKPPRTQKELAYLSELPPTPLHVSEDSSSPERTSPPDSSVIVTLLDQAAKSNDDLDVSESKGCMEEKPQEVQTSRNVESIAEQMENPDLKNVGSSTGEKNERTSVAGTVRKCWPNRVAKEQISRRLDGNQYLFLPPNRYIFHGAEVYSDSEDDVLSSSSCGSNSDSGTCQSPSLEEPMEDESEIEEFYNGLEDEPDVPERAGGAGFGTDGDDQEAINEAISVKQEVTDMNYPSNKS
Test: Inhibition of recombinant human GST or His6-tagged SIRT1 using H2N-HK-[Nepsilon-acetyl-lysine]-LM-COOH as substrate incubated for 10 mins in presence of beta-NAD+ by HPLC based assay
Parameter: IC50 (nM)

molecule=CCCC[C@@H]1NC(=O)CCCCCCC(=O)NCCCC[C@@H](C(N)=O)NC(=O)[C@H](CCCCNC(C)=S)NC1=O target_or_test_system="NAD-dependent protein deacetylase sirtuin-1 (Homo sapiens, UniProt Q96EB6)" observed_value=220
molecule=CC(=S)NCCCC[C@@H]1NC(=O)[C@H](Cc2ccc3ccccc3c2)NC(=O)CCCCCCC(=O)NCCC[C@@H](C(N)=O)NC1=O target_or_test_system="NAD-dependent protein deacetylase sirtuin-1 (Homo sapiens, UniProt Q96EB6)" observed_value=180
molecule=CCCC[C@@H]1NC(=O)CCCCCCC(=O)NC[C@@H](C(N)=O)NC(=O)[C@H](CCCCNC(C)=S)NC1=O target_or_test_system="NAD-dependent protein deacetylase sirtuin-1 (Homo sapiens, UniProt Q96EB6)" observed_value=450

(I) CC(=S)NCCCC[C@@H]1NC(=O)[C@H](Cc2ccc3ccccc3c2)NC(=O)CCCCCCC(=O)NCC[C@@H](C(N)=O)NC1=O
(II) CC(=S)NCCCC[C@@H]1NC(=O)CNCCC(=O)NCCCC[C@@H](C(N)=O)NC1=O
(III) CC(=S)NCCCC[C@@H]1NC(=O)[C@H](Cc2csc3ccccc23)NC(=O)CCCCCCC(=O)NCCCC[C@@H](C(N)=O)NC1=O
(IV) CCCC[C@@H]1NC(=O)CCCCCCC(=O)NCCC[C@@H](C(N)=O)NC(=O)[C@H](CCCCNC(C)=S)NC1=O
(V) CC(C(=O)Nc1cccc(/N=C/c2c(O)ccc3ccccc23)c1)c1ccccc1 (stereo unspecified) [SALERMIDE]
Ask: Put the entries in order of IC50, starting with the largest number. Write the labels in rank order as requested.
Result: V, II, I, III, IV
(V: 37500 nM, II: 22000 nM, I: 1100 nM, III: 500 nM, IV: 270 nM)

(1) CC(=S)NCCCC[C@@H]1NC(=O)[C@H](Cc2csc3ccccc23)NC(=O)CCCCCCC(=O)NC[C@@H](C(N)=O)NC1=O
(2) CC(=S)NCCCC[C@@H]1NC(=O)[C@H](Cc2ccc3ccccc3c2)NC(=O)CCCCCCC(=O)NC[C@@H](C(N)=O)NC1=O
Ask: Exercise: compare 1 and 2 ; which one has the greater IC50? Give the label under which the chosen entry appears.
Result: 1

* * *

Organism: Homo sapiens
Test: Selectivity ratio of IC50 for recombinant human His6-tagged SIRT3 to IC50 for recombinant human GST or His6-tagged SIRT1
Parameter: Ratio IC50

Below are worked cases with known answers.
compound=CC(=S)NCCCC[C@@H]1NC(=O)[C@H](Cc2csc3ccccc23)NC(=O)CCCCCCC(=O)NCC[C@@H](C(N)=O)NC1=O observed_value=7.9
compound=CC(=S)NCCCC[C@@H]1NC(=O)[C@H](Cc2ccc3ccccc3c2)NC(=O)CCCCCCC(=O)NCCC[C@@H](C(N)=O)NC1=O observed_value=17.8
compound=CC(=S)NCCCC[C@@H]1NC(=O)[C@H](Cc2csc3ccccc23)NC(=O)CCCCCCC(=O)NCCC[C@@H](C(N)=O)NC1=O observed_value=4.7

(P) CC(=S)NCCCC[C@@H]1NC(=O)CNC(=O)CCCCCCC(=O)NCCCC[C@@H](C(N)=O)NC1=O
(Q) CCCC[C@@H]1NC(=O)CCCCCCC(=O)NCC[C@@H](C(N)=O)NC(=O)[C@H](CCCCNC(C)=S)NC1=O
Ask: # return whichever of P and Q has the smaller Ratio IC50 Bench note: the answer is the label of the chosen record.
Result: P
(P: 0.9, Q: 1.8)

Sourced from ChEMBL document CHEMBL3860093
